Exercise: for every item that follows, state its recorded melting point.
Structures can show the parent of a compound that is named as a salt.

INSERT INTO measurements (compound, result) VALUES
  ('O=C1c2cccc(N3CCNCC3)c2Oc2ccccc2N1Cc1ccccc1 (as salt: HCl) [Compound 1]', '198 to 199 °C');

Below is a list of compounds. For each, state its recorded melting point.
1. O=C1c2cccc(N3CCNCC3)c2Sc2ccccc2N1Cc1ccccc1 (as salt: HCl) [Compound 20]
2. O=C1c2cccc(N3CCNCC3)c2Oc2ccccc2N1Cc1c[nH]c2ccccc12 [Compound 37]

Result:
1. 301 to 302 °C
2. 98 to 99 °C

Task: # query: melting point of entry O=C1c2cccc(N3CCNCC3)c2Nc2ccccc2N1Cc1ccccc1 (as salt: HCl) [Compound 13]
Result: 322 to 323 °C (dec.)
